Where do these numbers come from? They come from PubChem BioAssay (NCI).

Reported values of growth for individual entries
tested on: A549/ATCC NSCLC; assay: NCI-60 one-dose screen, 48 h (100 = growth as untreated, 0 = no growth, -100 = all killed); details: 10 µM unless noted
The panel holds about 83,000 compounds, 20% with a hit somewhere; the sample as a whole holds those more often.
Report the value in % with no unit label.

Req: Return reported growth; argument: O=C(N/N=C(\CS(=O)(=O)c1ccccc1)c1cc2cc(Br)ccc2oc1=O)c1ccccc1
Resp: 95.3

Req: Return reported growth; argument: CC1(C)CC(=O)C2=C(C1)Nc1cc3c(cc1C2c1ccc(F)cc1)OCO3 (centres undefined)
Resp: 94.5

Req: Return reported growth; argument: Cc1ccc(-c2nnc(COc3ccc(-c4nnc(N)s4)cc3)o2)cc1
Resp: 105

Req: Return reported growth; argument: COc1cc(/C=N/NC(=O)c2cnn3c2NC(c2ccccc2)C3)cc(OC)c1OC (centres undefined)
Resp: 64.8

Req: Return reported growth; argument: CCOc1ccc(-c2cnnn2-c2nonc2-n2cccc2)cc1
Resp: 17.2

Req: Return reported growth; argument: C=CC[P+](c1ccccc1)(c1ccccc1)c1ccccc1
Resp: 69.6

Req: Return reported growth; argument: Cc1ccc2nc(NC(=O)CSC(=S)N3CCN(C)CC3)sc2c1
Resp: 95.3

Req: Return reported growth; argument: CC(=O)Nc1ccc(S(=O)(=O)N/N=C\c2ccc(Cl)c(Cl)c2)cc1
Resp: 93.8

Req: Return reported growth; argument: O=c1nc(NO)[nH]c(=O)n1Cc1ccc(F)cc1
Resp: 104

Req: Return reported growth; argument: Cc1nc2nc(C(F)(F)F)[nH]c2nc1C
Resp: 99.7

Req: Return reported growth; argument: O=C(O)CCN1CCN(c2cccc(Cl)c2)CC1
Resp: 95.9

Req: Return reported growth; argument: COC1(OC)C2(Cl)C=C(c3ccccc3)C1(Cl)C(Cl)=C2Cl (centres undefined)
Resp: 99.8

Req: Return reported growth; argument: COc1cc(/C=C2\C(=O)Nc3ccccc32)cc(OC)c1O
Resp: 67.9

Req: Return reported growth; argument: COc1ccc(-c2c(-c3cc4c(c(OC)c3OC)OCO4)noc2N)cc1
Resp: 24.1

Req: Return reported growth; argument: c1ccc(-c2nc(N3CCOCC3)c3c4c(sc3n2)CCCCCC4)nc1
Resp: 28.9
